Can you tell me selectivity ratio for the items I'm about to list?
Test: Safety index, ratio of IC50 for human kidney epithelial cells to IC50 for Entamoeba histolytica HMI:IMSS
Type: toxicity, cell-based, Epithelial cell
Details: read-out: Ratio IC50

What selectivity ratio value was documented for this molecule, Cc1ncc([N+](=O)[O-])n1CCO ?
> 55.5

Repeat with Clc1cccc(C2CC(c3cccc(Br)c3)=NN2c2nc3nc4ccccc4nc3s2)c1Cl (stereo not given)
> 85.7

Repeat with Brc1cccc(C2=NN(c3nc4nc5ccccc5nc4s3)C(c3ccccc3)C2)c1 (stereo not given)
> 428

Repeat with Brc1cccc(C2=NN(c3nc4nc5ccccc5nc4s3)C(c3c[nH]c4ccccc34)C2)c1 (stereo not given)
> 750

Repeat with Cc1cc(C)c(C2CC(c3cccc(Br)c3)=NN2c2nc3nc4ccccc4nc3s2)c(C)c1 (stereo not given)
> 46.5
